The entries below come with measured Activity values attached.
Experiment: Antioxidant activity assessed as trolox equivalents of AAPH-induced radical scavenging activity by ORAC-FL assay
Type: functional
Numbers only here, please. The scale is equiv.

>>> df
                                   compound  assay_metric  unit_string  measured_value
0  COC(=O)C1=C(C)N(NC(=O)OC(C)(C)C)C23c4cc5c(cc4CCN2Cc2c(ccc(OC)c2OC)C13)OCO5 (stereo not drawn)      Activity        equiv            1470

Query (compound): COc1ccc2c(c1OC)CN1CCc3cc4c(cc3C13C2C(P(=O)(OC)OC)=C(C)N3NC(=O)OC(C)(C)C)OCO4 (stereo not drawn) ; field requested: Activity
1130

COc1ccc2c(c1OC)CN1CCc3cc4c(cc3C1C2)OCO4 (stereo not drawn) [TETRAHYDROBERBERINE] , same question.
1580

COC(=O)C1=C(C)N(NC(=O)Nc2ccccc2)C23c4cc5c(cc4CCN2Cc2c(ccc(OC)c2OC)C13)OCO5 (stereo not drawn) , same question.
1160

* * *

Tested on: NCTC-2544
Test: Cytotoxicity against human NCTC-2544 cells assessed as reduction in cell viability at 30 uM up to 72 hrs by WST8 assay
Type: cell-based
Details: nctc-2544, 72 h
assay.metric: Activity

In [3]: df
Out[3]:
                                   compound  measured_value
0  COC(=O)C1=C(C)N(NC(=O)OC(C)(C)C)C23c4cc5c(cc4CCN2Cc2c(ccc(OC)c2OC)C13)OCO5 (stereo unspecified)       Non-Toxic
1  COC(=O)C1=C(C)N(NC(=O)Nc2ccccc2)C23c4cc5c(cc4CCN2Cc2c(ccc(OC)c2OC)C13)OCO5 (stereo unspecified)       Non-Toxic
2  COc1ccc2c(c1OC)CN1CCc3cc4c(cc3C13C2C(C(=O)Nc1ccccc1)=C(C)N3NC(=O)Nc1ccccc1)OCO4 (stereo unspecified)       Non-Toxic
3  CCOC(=O)C1=C(C)N(NC(=O)OC(C)(C)C)C23c4cc5c(cc4CCN2Cc2c(ccc(OC)c2OC)C13)OCO5 (stereo unspecified)       Non-Toxic
4  CCOC(=O)NN1C(C)=C(C(=O)OCC)C2c3ccc(OC)c(OC)c3CN3CCc4cc5c(cc4C231)OCO5 (stereo unspecified)       Non-Toxic

Query (compound): COC(=O)NN1C(C)=C(C(=O)OC)C2c3ccc(OC)c(OC)c3CN3CCc4cc5c(cc4C231)OCO5 (stereo unspecified) ; field requested: Activity
Non-Toxic

* * *

Assay: Antioxidant activity assessed as trolox equivalents of AAPH-induced radical scavenging activity by ORAC-FL assay
Assay type: functional
The entries below come with measured Activity values attached.
Numbers only here, please. The scale is equiv.

>>> print(df.to_string())
                                   compound  measured_value
0  CCOC(=O)C1=C(C)N(NC(=O)OC(C)(C)C)C23c4cc5c(cc4CCN2Cc2c(ccc(OC)c2OC)C13)OCO5 (centres undefined)            1560

Query (compound): CCOC(=O)NN1C(C)=C(C(=O)OCC)C2c3ccc(OC)c(OC)c3CN3CCc4cc5c(cc4C231)OCO5 (centres undefined) ; field requested: Activity
955

COC(=O)NN1C(C)=C(C(=O)OC)C2c3ccc(OC)c(OC)c3CN3CCc4cc5c(cc4C231)OCO5 (centres undefined) , same question.
855

COc1ccc2c(c1OC)CN1CCc3cc4c(cc3C13C2C(C(=O)Nc1ccccc1)=C(C)N3NC(=O)Nc1ccccc1)OCO4 (centres undefined) , same question.
185
